# target_under_test: angiotensin converting enzyme (ACE) (Oryctolagus cuniculus)
# Construct: purchased Sigma
# Sequence (P12822 34-1310): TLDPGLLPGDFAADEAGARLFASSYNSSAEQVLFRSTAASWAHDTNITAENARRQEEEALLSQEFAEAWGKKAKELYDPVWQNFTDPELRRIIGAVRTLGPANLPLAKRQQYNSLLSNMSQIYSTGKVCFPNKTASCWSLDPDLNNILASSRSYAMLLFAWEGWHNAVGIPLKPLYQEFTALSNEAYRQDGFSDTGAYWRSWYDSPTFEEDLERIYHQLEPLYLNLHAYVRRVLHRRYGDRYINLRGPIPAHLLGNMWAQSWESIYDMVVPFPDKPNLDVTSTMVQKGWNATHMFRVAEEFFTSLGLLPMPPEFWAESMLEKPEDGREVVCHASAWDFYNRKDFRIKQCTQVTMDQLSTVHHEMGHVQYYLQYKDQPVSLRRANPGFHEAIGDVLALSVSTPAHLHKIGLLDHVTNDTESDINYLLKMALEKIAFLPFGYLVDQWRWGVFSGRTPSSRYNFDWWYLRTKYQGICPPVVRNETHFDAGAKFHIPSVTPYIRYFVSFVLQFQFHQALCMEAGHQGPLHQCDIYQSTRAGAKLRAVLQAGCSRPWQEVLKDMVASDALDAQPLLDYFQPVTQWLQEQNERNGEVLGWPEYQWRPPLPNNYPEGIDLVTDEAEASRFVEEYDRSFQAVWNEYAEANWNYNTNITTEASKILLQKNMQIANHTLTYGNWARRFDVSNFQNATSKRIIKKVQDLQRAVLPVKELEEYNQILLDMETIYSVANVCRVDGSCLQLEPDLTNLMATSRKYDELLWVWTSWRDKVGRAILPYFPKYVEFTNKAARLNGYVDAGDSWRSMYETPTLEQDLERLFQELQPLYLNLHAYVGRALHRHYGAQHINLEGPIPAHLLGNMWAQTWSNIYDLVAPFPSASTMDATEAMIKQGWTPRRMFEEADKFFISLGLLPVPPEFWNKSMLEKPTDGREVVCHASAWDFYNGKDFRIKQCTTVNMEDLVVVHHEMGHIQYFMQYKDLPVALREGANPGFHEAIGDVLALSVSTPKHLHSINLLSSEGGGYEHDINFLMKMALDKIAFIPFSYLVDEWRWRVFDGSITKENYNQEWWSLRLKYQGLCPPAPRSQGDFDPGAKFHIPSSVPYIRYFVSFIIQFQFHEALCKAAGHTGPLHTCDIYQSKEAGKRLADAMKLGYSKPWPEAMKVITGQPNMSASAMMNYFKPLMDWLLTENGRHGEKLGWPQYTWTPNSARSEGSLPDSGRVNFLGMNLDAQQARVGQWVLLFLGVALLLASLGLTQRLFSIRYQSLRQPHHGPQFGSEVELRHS
# method: ACE assay with purified ACE enzyme (Inhibition of Angiotensin Converting Enzyme)
# Assay type: biochemical
# experimental_parameters: purified ACE enzyme (Sigma); judged from IC50 values
Residues, ends and D or L forms follow the SMILES beside them.

compound: NCCCC[C@H](NC(=O)[C@@H]1CCCN1C(=O)[C@@H](N)CCC(=O)O)C(=O)O [SEQ ID NO: 9] (H-Glu-Pro-Lys-OH; N-terminus and C-terminus assumed)
target_under_test: angiotensin converting enzyme (ACE) (Oryctolagus cuniculus)
ACE inhibiting activity (in words): good ACE inhibitors

compound: NCCCC[C@H](NC(=O)[C@@H]1CCCN1C(=O)[C@H](CCC(=O)O)NC(=O)[C@@H](N)CO)C(=O)O [SEQ ID NO: 3] (H-SEPK-OH; N-terminus and C-terminus assumed)
target_under_test: angiotensin converting enzyme (ACE) (Oryctolagus cuniculus)
ACE inhibiting activity (in words): strong inhibitors of ACE

compound: CC(C)C[C@H](NC(=O)[C@@H](N)CO)C(=O)N1CCC[C@H]1C(=O)N[C@@H](CCC(=O)O)C(=O)O [SEQ ID NO: 2] (H-SLPE-OH; N-terminus and C-terminus assumed)
target_under_test: angiotensin converting enzyme (ACE) (Oryctolagus cuniculus)
ACE inhibiting activity (in words): strong inhibitors of ACE

compound: CC(C)C[C@H](N)C(=O)N1CCC[C@H]1C(=O)N[C@@H](CCC(=O)O)C(=O)O [SEQ ID NO: 8] (H-Leu-Pro-Glu-OH; N-terminus and C-terminus assumed)
target_under_test: angiotensin converting enzyme (ACE) (Oryctolagus cuniculus)
ACE inhibiting activity (in words): good ACE inhibitors

Recorded values, source patent US20080132454A1.
